Test system: HL-60(TB) leukemia
assay_method_text: NCI-60 one-dose screen, 48 h (100 = growth as untreated, 0 = no growth, -100 = all killed)
condition_description: 10 µM unless noted
This is part of a sample that, as a whole, favours compounds with a hit. Of some 83,000 tested, about 20% had one in any assay.
// growth lookup, one value per entry
result_type: growth (%)

- line_notation: "CCOC(=O)c1c(N)sc2cc(O)ccc12"
  target_entity: "HL-60(TB) leukemia"
  result_type: "growth"
  meas_value: 94.1
- line_notation: "O=C1Nc2ccccc2/C1=C\\c1c(-c2ccccc2)nc2ccccn12"
  target_entity: "HL-60(TB) leukemia"
  result_type: "growth"
  meas_value: -10.7
- line_notation: "C/C(=N/N=C(N)N)c1ccc(N)cc1"
  target_entity: "HL-60(TB) leukemia"
  result_type: "growth"
  meas_value: 60.1
- line_notation: "NCCCN1CCCC1=O"
  target_entity: "HL-60(TB) leukemia"
  result_type: "growth"
  meas_value: 90.1
- line_notation: "O=c1cc2oc3cc(O)c(O)cc3c(-c3ccccc3O)c-2cc1O"
  target_entity: "HL-60(TB) leukemia"
  result_type: "growth"
  meas_value: 103
- line_notation: "CCN(CC)CCCCCCCCNc1c2ccc(Cl)cc2nc2ccc(OC)cc12"
  target_entity: "HL-60(TB) leukemia"
  result_type: "growth"
  meas_value: -53.2
- line_notation: "S=C(c1cccs1)N1CCN(c2cccc(Cl)c2)CC1"
  target_entity: "HL-60(TB) leukemia"
  result_type: "growth"
  meas_value: 90.8
- line_notation: "CN1CCN(c2ccc(Nc3ncc(C(N)=O)c(NCCCNC(=O)C4CCC4)n3)cc2)CC1"
  target_entity: "HL-60(TB) leukemia"
  result_type: "growth"
  meas_value: -36.3

From: PubChem BioAssay (NCI)
